Where these numbers come from: patent US6908912B2

- MEASUREMENT NOTES: Solubility and stability of concentrated mixtures of sodium pyrithione, ZnCl2 and organic amines (Example 55)
- CONDITION INFO: mixtures of sodium pyrithione, ZnCl2 and the named amine; room temperature
MEASUREMENT LABEL: solubility and stability of mixture after 24 and 72 hours

{"COMPOUND": "CCC(N)(CO)CO", "MEASURED RESULT": "precipitates"}
{"COMPOUND": "CC(O)CNCC(C)O (stereo not shown)", "MEASURED RESULT": "precipitates"}
{"COMPOUND": "NCCOCCO", "MEASURED RESULT": "precipitates"}
